Hi there, I'd appreciate the recorded melting point for every entry that follows.

Hi! Can you tell me melting point for each of these compounds?
1. COc1cccc(N(C)C(=O)c2ccc(-c3cccc(OC)c3F)cc2)c1 [Compound 19a]
2. Cc1cccc(N(C)C(=O)c2ccc(-c3ccc4c(c3)OCO4)cc2)c1 [Compound 23a]
3. COc1cccc(N(C)C(=O)c2ccc(-c3ccc(OC)c(OC)c3)cc2)c1 [Compound 16a]
4. COc1cccc(N(C)C(=O)c2ccc(-c3ccccc3)cc2)c1
5. COc1cccc(-c2ccc(C(=O)N(C)c3cccc(OC)c3)cc2)c1

Reply:
1: 125 to 127 °C; 2: 111 to 113 °C; 3: 153 to 156 °C; 4: 102 to 104 °C; 5: 131 to 134 °C

Please look at the items below and tell me melting point for each one, in order.
1. CN(C(=O)c1ccc(-c2cccc(O)c2)cc1)c1cccc(O)c1
2. COc1ccc(-c2ccc(C(=O)N(C)c3cccc(OC)c3)cc2)cc1 [Compound 10a]
3. Cc1cccc(N(C)C(=O)c2ccc(-c3cccc(C)c3F)cc2)c1 [Compound 21a]
4. COc1cccc(N(C)C(=O)c2ccc(-c3cccc(C)c3F)cc2)c1 [Compound 20a]
5. COc1ccc(-c2ccc(C(=O)N(C)c3ccc(OC)cc3)cc2)cc1 [Compound 12a]
6. COc1cccc(N(C)C(=O)c2ccc(-c3cccc(F)c3)cc2)c1 [Compound 13a]
7. Cc1cccc(-c2ccc(C(=O)N(C)Cc3cccc(O)c3)cc2)c1F

Reply:
1. 168 to 171 °C
2. 128 to 130 °C
3. 73 to 76 °C
4. 91 to 94 °C
5. 129 to 132 °C
6. 97 to 100 °C
7. 123 to 126 °C

Ask: melting point for COc1cccc(N(C)C(=O)c2ccc(-c3ccc4c(c3)OCO4)cc2)c1 [Compound 22a] ?
Reply: 139 to 141 °C
